Form field: pEC50 (one value per entry).
- Tested on: NS5A chimeric genotype 1b Con1 replicon with genotype 3a S52 strain NS5A gene
- Assay Explanation: Replicon assay, genotype 3a NS5A chimera
- Format: cell-based, HCV
- Recorded Conditions: Hepatitis C virus, read-out: 3a (s), (s); activity range
pEC50: −log10 of the molar value.

Would you please look over these solved cases?
1) CC[C@H]1CC[C@@H](c2nc3ccc4cc5c(cc4c3[nH]2)OCc2cc(-c3cnc([C@@H]4CC[C@H](C)N4C(=O)[C@@H](NC(=O)OC)[C@@H](C)CC)[nH]3)ccc2-5)N1C(=O)[C@@H](NC(=O)OC)C1CCOCC1 [IK] : 9.00 to 10.00
2) COC(=O)N[C@H](C(=O)N1[C@@H](C)CC[C@H]1c1nc2ccc3cc4c(cc3c2[nH]1)OCc1cc(-c2cnc([C@@H]3C[C@H](F)CN3C(=O)[C@@H](NC(=O)OC)[C@@H](C)OC)[nH]2)ccc1-4)C(C)C [HU] : > 10.00
3) COC(=O)N[C@H](C(=O)N1[C@@H](C)CC[C@H]1c1nc2ccc3cc4c(cc3c2[nH]1)OCc1cc(-c2cnc([C@@H]3[C@@H]5C[C@@H]5CN3C(=O)[C@@H](NC(=O)OC)[C@@H](C)OC)[nH]2)ccc1-4)C(C)C [HP] : > 10.00

Now take the following compound into account.
Query (compound): COC[C@H]1C[C@@H](c2ncc(-c3ccc4c(c3)COc3cc5c(ccc6nc([C@@H]7CC[C@H](C)N7C(=O)[C@@H](NC(=O)OC)[C@@H](C)OC)[nH]c65)cc3-4)[nH]2)N(C(=O)[C@@H](NC(=O)OC)[C@@H](C)OC)C1 [FX] ; field requested: pEC50
9.00 to 10.00

* * *

- System: stable HCV 2a JFH-1 Rluc replicon cells (L31 present in NS5A)
- Assay Explanation: Renilla luciferase HCV replicon reporter assay, genotype 2a JFH-1
- Format: cell-based
- Recorded Conditions: Hepatitis C virus, read-out: 2a JFH (nM), genotype 2a JFH-1 replicon (L31 in NS5A), stable cells
Form field: EC50 (one value per entry).
Write it as a number; the unit nM goes unstated.

Would you please look over these solved cases?
1. CC[C@H]1C[C@@H](c2nc3ccc4cc5c(cc4c3[nH]2)OCc2cc(-c3cnc([C@@H]4CC[C@H](C)N4C(=O)[C@@H](NC(=O)OC)C(C)C)[nH]3)ccc2-5)N(C(=O)[C@@H](NC(=O)OC)C(C)C)C1 [GT] : 0.028
2. CC[C@H](C)[C@H](NC(=O)OC)C(=O)N1[C@@H](C)CC[C@H]1c1ncc(-c2ccc3c(c2)COc2cc4c(ccc5nc([C@@H]6CC[C@H](C)N6C(=O)[C@@H](NC(=O)OC)C6CCOCC6)[nH]c54)cc2-3)[nH]1 [GG] : 0.02

Query (compound): CC[C@H]1C[C@@H](c2nc3ccc4cc5c(cc4c3[nH]2)OCc2cc(-c3cnc([C@@H]4CC[C@H](C)N4C(=O)[C@@H](NC(=O)OC)C(C)C)[nH]3)ccc2-5)N(C(=O)[C@H](C)NC(=O)OC)C1 [HK] ; field requested: EC50
0.034

* * *

Form field: bioavailability (one value per entry).
- Assay Explanation: IV and PO single dose pharmacokinetic studies in SD rats
- Format: in vivo, male Sprague-Dawley (SD) rats
- Recorded Conditions: Sprague-Dawley, rat, plasma, male SD rats, PO 2 mg/kg vs IV infusion 1 mg/kg, read-out: Rat % F
Write it as a number; the unit % goes unstated.

1) CC[C@H](C)[C@H](NC(=O)OC)C(=O)N1[C@@H](C)CC[C@H]1c1nc2ccc3cc4c(cc3c2[nH]1)OCc1cc(-c2cnc([C@@H]3CC[C@H](C)N3C(=O)[C@@H](NC(=O)OC)C3CCOCC3)[nH]2)ccc1-4 : 17.7
2) CC[C@H](C)[C@H](NC(=O)OC)C(=O)N1[C@@H](C)CC[C@H]1c1ncc(-c2ccc3c(c2)COc2cc4c(ccc5nc([C@@H]6C[C@@H]7CCC[C@@H]7N6C(=O)[C@@H](NC(=O)OC)C6CCOCC6)[nH]c54)cc2-3)[nH]1 : 18.9
3) COC(=O)N[C@H](C(=O)N1[C@H](c2ncc(-c3ccc4c(c3)COc3cc5c(ccc6nc([C@@H]7C[C@@H]8CCC[C@@H]8N7C(=O)[C@@H](NC(=O)OC)C7CCOCC7)[nH]c65)cc3-4)[nH]2)C[C@@H]2CCC[C@@H]21)C(C)C : 16.2

Now take the following compound into account.
Query (compound): `CC[C@H]1CC[C@@H](c2nc3ccc4cc5c(cc4c3[nH]2)OCc2cc(-c3cnc([C@@H]4CC[C@H](C)N4C(=O)[C@@H](NC(=O)OC)C(C)C)[nH]3)ccc2-5)N1C(=O)[C@@H](NC(=O)OC)[C@@H](C)OC` ; field requested: bioavailability
17.5
